# MEASURED_TARGET: Collagenase 3 (Homo sapiens)
pIC50: −log10 of the molar value.
Decision: pIC50 compared against 7; not below it gives Y, below it gives N.

{"COMPOUND": "CC#CCOc1ccc(S(=O)(=O)N2CCN(C(=O)COC)CCC2C(=O)NO)cc1 (stereo not given)", "MEASURED_TARGET": "Collagenase 3 (Homo sapiens)", "CLASS_ASSIGNMENT": "Y"}
{"COMPOUND": "CC#CCOc1ccc(S(=O)(=O)N2CCCS(=O)(=O)CC2C(=O)NO)cc1 (stereo not given)", "MEASURED_TARGET": "Collagenase 3 (Homo sapiens)", "CLASS_ASSIGNMENT": "N"}
{"COMPOUND": "CC#CCOc1ccc(S(=O)(=O)N2CCCN(C(=O)OC(C)(C)C)CC2C(=O)NO)cc1 (stereo not given)", "MEASURED_TARGET": "Collagenase 3 (Homo sapiens)", "CLASS_ASSIGNMENT": "N"}
{"COMPOUND": "CC#CCOc1ccc(S(=O)(=O)N2CCCN(C(=O)CCCN(C)C)CC2C(=O)NO)cc1 (stereo not given)", "MEASURED_TARGET": "Collagenase 3 (Homo sapiens)", "CLASS_ASSIGNMENT": "N"}
{"COMPOUND": "CC#CCOc1ccc(S(=O)(=O)N2CCN(C(=O)C(C)C)CCC2C(=O)NO)cc1 (stereo not given)", "MEASURED_TARGET": "Collagenase 3 (Homo sapiens)", "CLASS_ASSIGNMENT": "Y"}
{"COMPOUND": "CC#CCOc1ccc(S(=O)(=O)N2CCN(CC)CCC2C(=O)NO)cc1 (stereo not given)", "MEASURED_TARGET": "Collagenase 3 (Homo sapiens)", "CLASS_ASSIGNMENT": "Y"}
{"COMPOUND": "CC#CCOc1ccc(S(=O)(=O)N2CCN(C(=O)CC)CCC2C(=O)NO)cc1 (stereo not given)", "MEASURED_TARGET": "Collagenase 3 (Homo sapiens)", "CLASS_ASSIGNMENT": "Y"}
{"COMPOUND": "CC#CCOc1ccc(S(=O)(=O)N2CCNCCC2C(=O)NO)cc1 (stereo not given)", "MEASURED_TARGET": "Collagenase 3 (Homo sapiens)", "CLASS_ASSIGNMENT": "Y"}
{"COMPOUND": "CC#CCOc1ccc(S(=O)(=O)N2CCCN(C(C)=O)CC2C(=O)NO)cc1 (stereo not given)", "MEASURED_TARGET": "Collagenase 3 (Homo sapiens)", "CLASS_ASSIGNMENT": "N"}
{"COMPOUND": "CC#CCOc1ccc(S(=O)(=O)N2CCCN(C(=O)CNC(=O)OC(C)(C)C)CC2C(=O)NO)cc1 (stereo not given)", "MEASURED_TARGET": "Collagenase 3 (Homo sapiens)", "CLASS_ASSIGNMENT": "N"}
{"COMPOUND": "CC#CCOc1ccc(S(=O)(=O)N2CCSCCC2C(=O)NO)cc1 (stereo not given)", "MEASURED_TARGET": "Collagenase 3 (Homo sapiens)", "CLASS_ASSIGNMENT": "Y"}
{"COMPOUND": "CC#CCOc1ccc(S(=O)(=O)N2CCS(=O)(=O)CCC2C(=O)NO)cc1 (stereo not given)", "MEASURED_TARGET": "Collagenase 3 (Homo sapiens)", "CLASS_ASSIGNMENT": "Y"}
{"COMPOUND": "CC#CCOc1ccc(S(=O)(=O)N2CCCN(Cc3ccccc3)CC2C(=O)NO)cc1 (stereo not given)", "MEASURED_TARGET": "Collagenase 3 (Homo sapiens)", "CLASS_ASSIGNMENT": "Y"}
